Data origin: patent US20260250290A1

- target desc: full length SGK1 (Homo sapiens, UniProt O00141)
- Construct: 125 μM full length SGK1 (Life Technologies Part #PR7358A); purchased Life Technologies PR7358A
- procedure details: SGK1 inhibition Assay A (Caliper LabChip electrophoretic separation of fluorescent peptide substrate and phosphorylated product)
- Assay type: biochemical
- applied conditions: Assay A; 20 μM ATP, 40 min incubation; read-out: SGK1 IC50
measurement label: log10 of IC50 (log10 of the value in nM)
Please interpret these as log10 of IC50 where IC50 is in nM.

Would you please look over these solved cases?
CN1CCC(c2cc(C(F)F)sc2C(=O)N[C@@H]2CCCN(c3cc(-c4ccc(C#N)nc4)n4ncnc(N)c34)C2)C1 (stereo partly drawn) : 2.40
CC(=O)N1CC=C(c2cc(N3CCC[C@@H](NC(=O)c4ccc(N(C)C)cc4)C3)c3c(N)ncnn23)C1 : 0.70
CC(=O)N1CC=C(c2cc(N3CCC[C@@H](NC(=O)c4cc5cc(F)ccc5[nH]4)C3)c3c(N)ncnn23)C1 : 1.45
CC(=O)N1CC=C(c2cc(N3CCC[C@@H](NC(=O)c4sc(C(F)F)cc4N4CC5(COC5)C4)C3)c3c(N)ncnn23)C1 : 1.81
COC(=O)N1CC=C(c2cc(N3CCC[C@@H](NC(=O)c4sc(Cl)cc4OC4CCNCC4)C3)c3c(N)ncnn23)C1 : 0.30

Dear colleague, could you send me log10 of IC50 for each of the items below? Thanks.
1. Nc1ncnn2c(-c3ccnc(F)c3)cc(N3CCC[C@@H](NC(=O)c4cccs4)C3)c12
2. CN(C)CCOc1cc(Cl)sc1C(=O)N[C@@H]1CCCN(c2cc(C3=CCN(C(=O)c4cnco4)C3)n3ncnc(N)c23)C1
3. CC(=O)N1CC=C(c2cc(N3CCC[C@@H](NC(=O)c4sc(Cl)cc4OC4CCNC4)C3)c3c(N)ncnn23)C1 (stereo partly drawn)
4. CC(=O)N1CC=C(c2cc(N3CCC[C@@H](NC(=O)c4sc(C(F)F)cc4C4CCN(C(C)C)C4)C3)c3c(N)ncnn23)C1 (stereo partly drawn) [Example 399]
5. CN(C)CCOc1c(C(=O)N[C@@H]2CCCN(c3cc(-c4ccc(C#N)nc4)n4ncnc(N)c34)C2)sc2ccncc12
6. CN(C)CCOc1c(C(=O)N[C@@H]2CCCN(c3cc(-c4ccc(C#N)nc4)n4ncnc(N)c34)C2)[nH]c2ccccc12
7. Nc1ncnn2c(-c3ccnc(F)c3)cc(N3CCC[C@@H](NC(=O)c4ccsc4)C3)c12
8. CC(C)Cn1cc(-c2cc(N3CCC[C@@H](NC(=O)c4[nH]c5ccccc5c4OCCN(C)C)C3)c3c(N)ncnn23)ccc1=O

Output:
[0.00, 0.60, 0.70, 2.49, 1.04, 1.61, 0.30, 2.29]

----------
- target desc: full length SGK1 (Homo sapiens)
- Construct: 125 μM full length SGK1 (Life Technologies Part #PR7358A); purchased Life Technologies PR7358A
- Sequence (O00141 1-431): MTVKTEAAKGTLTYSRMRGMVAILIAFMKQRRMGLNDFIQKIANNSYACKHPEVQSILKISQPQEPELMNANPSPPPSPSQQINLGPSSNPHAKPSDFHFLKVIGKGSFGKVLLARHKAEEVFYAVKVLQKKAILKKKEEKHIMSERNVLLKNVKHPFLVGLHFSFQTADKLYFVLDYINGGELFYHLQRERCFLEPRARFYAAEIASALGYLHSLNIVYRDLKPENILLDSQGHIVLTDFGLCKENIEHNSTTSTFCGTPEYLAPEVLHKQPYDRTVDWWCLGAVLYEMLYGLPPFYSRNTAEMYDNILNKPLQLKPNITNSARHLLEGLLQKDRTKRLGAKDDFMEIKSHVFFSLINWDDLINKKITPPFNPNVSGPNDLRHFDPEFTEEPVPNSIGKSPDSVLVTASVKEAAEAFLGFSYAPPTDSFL
- procedure details: SGK1 inhibition Assay A (Caliper LabChip electrophoretic separation of fluorescent peptide substrate and phosphorylated product)
- Type: biochemical
- applied conditions: Assay A; 20 μM ATP, 40 min incubation; read-out: SGK1 IC50
measurement label: IC50 (nM)
Give bare numbers, in nM.

Would you please look over these solved cases?
COC(=O)N1CC=C(c2cc(N3CCC[C@@H](NC(=O)c4sc(C(F)F)cc4OCCNC(C)=O)C3)c3c(N)ncnn23)C1 : 30
CC(C)c1cccc(C(=O)N[C@@H]2CCCN(c3cc(-c4ccc(S(C)(=O)=O)cc4)n4ncnc(N)c34)C2)c1 : 32
Cc1cc(CO)c(C(=O)N[C@@H]2CCCN(c3cc(-c4ccnc(F)c4)n4ncnc(N)c34)C2)s1 : 12

Dear colleague, could you send me IC50 for each of the items below? Thanks.
1. CCn1cc(-c2cc(N3CCC[C@@H](NC(=O)c4sc(Cl)cc4OCCN(C)C)C3)c3c(N)ncnn23)ccc1=O
2. CC(=O)NCCOc1cc(C(F)F)sc1C(=O)N[C@@H]1CCCN(c2cc(-c3cncnc3)n3ncnc(N)c23)C1

Output:
[1420, 49]
